Recorded cell viability by entry
tested on: Calu-3; assay: cell viability relative to DMSO; higher = less toxic; details: 72 h; 10000 nM
Answer with a number only, understood to be in %.

Past entries and their recorded results:
Exam item: Endpoint output: cell viability of `O[C@H]1[C@H](O)[C@@H](O)[C@H](O)[C@@H](O)[C@H]1O` . Value?
Marked response: 100

Exam item: Endpoint output: cell viability of `c1ccc2c(c1)Sc1ccccc1N2C[C@H]1CN2CCC1CC2` . Value?
Marked response: 86.3

Exam item: Endpoint output: cell viability of `CC(C)(C)C(=O)/C(=N/c1ccc(Cl)cc1)NNc1ccc(Cl)cc1` . Value?
Marked response: 102

Exam item: Endpoint output: cell viability of Oc1cc2c(cc1O)CN(C(=S)NCCc1ccc(Cl)cc1)CCC2 [capsazepine] . Value?
Marked response: 92.6

Exam item: Endpoint output: cell viability of `Nc1nc(Nc2ccccc2)nc2c1ncn2[C@@H]1O[C@H](CO)[C@@H](O)[C@H]1O` . Value?
Marked response: 106

New cases:
Exam item: Endpoint output: cell viability of NC(=O)c1cc([N+](=O)[O-])cc([N+](=O)[O-])c1 [nitromide] . Value?
Marked response: 112

Exam item: Endpoint output: cell viability of `c1ccc2c(c1)sc1ccccc12` . Value?
Marked response: 101

Exam item: Endpoint output: cell viability of `NS(=O)(=O)Nc1ncnc(OCCOc2ncc(Br)cn2)c1-c1ccc(Br)cc1` . Value?
Marked response: 94.7

Exam item: Endpoint output: cell viability of `Nc1nnc(Sc2ncc([N+](=O)[O-])s2)s1` . Value?
Marked response: 62.7

Exam item: Endpoint output: cell viability of `CC(C)c1nc(CN(C)C(=O)N[C@H](C(=O)N[C@@H](Cc2ccccc2)C[C@H](O)[C@H](Cc2ccccc2)NC(=O)OCc2cncs2)C(C)C)cs1` . Value?
Marked response: 86.3

Exam item: Endpoint output: cell viability of `CCn1cc(C(=O)O)c(=O)c2cc3c(cc21)OCO3` . Value?
Marked response: 93.2

Exam item: Endpoint output: cell viability of `c1ccc(-c2ccc(CNc3nc(-c4ccccn4)nnc3-c3ccccc3)cc2)cc1` . Value?
Marked response: 17.5

###

system: U2OS; experiment: drug sensitivity score (DSS) for viability; higher = more toxic; extreme values may be limits of the assay; conditions: 72 h
Recorded drug sensitivity score by entry
Quick one: just the number, no unit, thanks!

Exam item: Endpoint output: drug sensitivity score of C1=N/C2=N/c3ccc(OCCN4CCCC4)c(c3)COC/C=C/COCc3cccc(c3)C(=C1)N2 [pacritinib] . Value?
Marked response: 7.1

New cases:
Exam item: Endpoint output: drug sensitivity score of c1ccc(-c2ccc(CNc3nc(-c4ccccn4)nnc3-c3ccccc3)cc2)cc1 [ML228] . Value?
Marked response: 12.8

Exam item: Endpoint output: drug sensitivity score of NC(CO)C(=O)NNCc1ccc(O)c(O)c1O (configuration not stated) [benserazide] . Value?
Marked response: 0

Exam item: Endpoint output: drug sensitivity score of CC[C@H]1OC(=O)[C@@](C)(F)C(=O)[C@H](C)[C@@H](O[C@@H]2O[C@H](C)C[C@H](N(C)C)[C@H]2O)[C@](C)(OC)C[C@@H](C)C(=O)[C@H](C)[C@H]2N(CCCCn3cc(-c4cccc(N)c4)nn3)C(=O)O[C@]12C [solithromycin] . Value?
Marked response: 0

###

test system: HepG2; test: cell viability relative to DMSO; higher = less toxic; settings: 72 h; 10 nM
Quantity measured: cell viability

Exam item: Endpoint output: cell viability of NCc1ccc(S(N)(=O)=O)cc1 [mafenide] . Value?
Marked response: 102%

New cases:
Exam item: Endpoint output: cell viability of `CC[C@H](c1ccc(O)cc1)[C@@H](CC)c1ccc(O)cc1` . Value?
Marked response: 96.2%

Exam item: Endpoint output: cell viability of `Cc1c(N(C)CS(=O)(=O)O)c(=O)n(-c2ccccc2)n1C` . Value?
Marked response: 109%

Exam item: Endpoint output: cell viability of `C(#Cc1nc2ncccc2nc1OCCN1CCCC1)c1ccccc1` . Value?
Marked response: 99.3%

Exam item: Endpoint output: cell viability of `Nc1nc(Nc2ccccc2)nc2c1ncn2[C@@H]1O[C@H](CO)[C@@H](O)[C@H]1O` . Value?
Marked response: 94.2%

Exam item: Endpoint output: cell viability of `Cc1[nH]c2ccc(F)cc2c1-c1nc2c3cccnc3c3ncccc3c2[nH]1` . Value?
Marked response: 97.2%

Exam item: Endpoint output: cell viability of `CN(Cc1cc(Br)cc(Br)c1N)C1CCCCC1` . Value?
Marked response: 108%

Exam item: Endpoint output: cell viability of `NC(=O)c1cccc2cn(-c3ccc([C@@H]4CCCNC4)cc3)nc12` . Value?
Marked response: 109%

Exam item: Endpoint output: cell viability of `COc1cc2c3cc1Oc1cc(ccc1O)C[C@@H]1c4c(cc(OC)c(O)c4Oc4ccc(cc4)C[C@@H]3N(C)CC2)CC[N+]1(C)C` . Value?
Marked response: 94.5%

Exam item: Endpoint output: cell viability of `CN(C)[C@@H]1C(O)=C(C(N)=O)C(=O)[C@@]2(O)C(O)=C3C(=O)c4c(O)ccc(Cl)c4[C@@H](O)[C@H]3C[C@@H]12` . Value?
Marked response: 97.6%

Exam item: Endpoint output: cell viability of `C[C@H](CCC(=O)O)[C@H]1CC[C@H]2[C@@H]3CC[C@@H]4C[C@H](O)CC[C@]4(C)[C@H]3CC[C@]12C` . Value?
Marked response: 96.4%

Exam item: Endpoint output: cell viability of `O=C(Cc1ccccc1)Nc1nc2ccc(Cl)cc2c2nc(-c3ccco3)nn12` . Value?
Marked response: 93%

Exam item: Endpoint output: cell viability of `CCOC(=O)[C@H](CCc1ccccc1)N[C@@H](C)C(=O)N1Cc2cc(OC)c(OC)cc2C[C@H]1C(=O)O` . Value?
Marked response: 98.6%

Exam item: Endpoint output: cell viability of `COc1cccc(-c2cc(=O)c3ccccc3o2)c1N` . Value?
Marked response: 87.8%

Exam item: Endpoint output: cell viability of `c1ccc(N2CCN(CCCOc3ccc4c(c3)OCO4)CC2)cc1` . Value?
Marked response: 93.1%

Exam item: Endpoint output: cell viability of `CCOC(=O)N1c2ccc(C(F)(F)F)cc2[C@@H](N(Cc2cc(C(F)(F)F)cc(C(F)(F)F)c2)C(=O)OC)C[C@H]1CC` . Value?
Marked response: 106%

Exam item: Endpoint output: cell viability of `Cc1onc(-c2ccccc2Cl)c1C(=O)N[C@@H]1C(=O)N2[C@@H]1SC(C)(C)[C@@H]2C(=O)O` . Value?
Marked response: 116%

Exam item: Endpoint output: cell viability of CNC(=O)CN(CCN(CCN(CC(=O)[O-])CC(=O)NC)CC(=O)[O-])CC(=O)[O-].[Gd+3] [gadodiamide] . Value?
Marked response: 102%

Exam item: Endpoint output: cell viability of CSCC1CN(/N=C/c2ccc([N+](=O)[O-])o2)C(=O)O1 (stereo not drawn) . Value?
Marked response: 93.8%

Exam item: Endpoint output: cell viability of `Cc1cccc(C)c1NC(=O)CN1CCN(CCCC(c2ccc(F)cc2)c2ccc(F)cc2)CC1` . Value?
Marked response: 109%

Exam item: Endpoint output: cell viability of Nc1ncnc2c1ncn2[C@@H]1O[C@H](CO)C[C@H]1O [cordycepin] . Value?
Marked response: 98.9%

###

Recorded cell viability by entry
test system: Caco-2; assay: cell viability relative to DMSO; higher = less toxic; conditions: 72 h; 1 nM
Answer with a number only, understood to be in %.

Past entries and their recorded results:
Exam item: Recall the recorded cell viability for Cc1[nH]c(/C=C2\C(=O)Nc3cc(-c4ccccc4)ccc32)c(C)c1CCC(=O)O [SU16f] with Caco-2 and state it.
Marked response: 98.7

Exam item: Recall the recorded cell viability for `Cc1cc(C)c(N(Cc2ccccc2)S(=O)(=O)c2ccc(OCCNC(=O)c3cc4ccccc4o3)cc2)c(C(=O)NO)c1` with Caco-2 and state it.
Marked response: 94.1

Exam item: Recall the recorded cell viability for `Cc1c(O)c(=O)ccn1C` with Caco-2 and state it.
Marked response: 92.4

# next compound below
Exam item: Recall the recorded cell viability for `Cc1nn(C)c2nc(NNC(=O)Nc3cc(Cl)nc(Cl)c3)cc(C(C)C)c12` with Caco-2 and state it.
Marked response: 96.7

###

Recorded cell viability by entry
tested on: U2OS; assay: cell viability relative to DMSO; higher = less toxic; details: 72 h; 10000 nM
Units required after the number.

Exam item: Endpoint output: cell viability of `CCOP(=S)(OCC)Oc1nc(Cl)c(Cl)cc1Cl` . Value?
Marked response: 99.4%

Exam item: Endpoint output: cell viability of NS(=O)(=O)c1cc(C2(O)NC(=O)c3ccccc32)ccc1Cl (stereo not given) . Value?
Marked response: 102%

Exam item: Endpoint output: cell viability of `CNCCCN1c2ccccc2CCc2ccccc21` . Value?
Marked response: 97.1%

Exam item: Endpoint output: cell viability of Cc1ncc(C[n+]2csc(CCOP(=O)(O)OP(=O)(O)O)c2C)c(N)n1 [thiamine-pyrophosphate] . Value?
Marked response: 98.2%

Exam item: Endpoint output: cell viability of `Nc1nc(Nc2ccccc2)nc2c1ncn2[C@@H]1O[C@H](CO)[C@@H](O)[C@H]1O` . Value?
Marked response: 105%

Exam item: Endpoint output: cell viability of CC1(C)C[C@@H]1C(=O)N/C(=C\CCCCSC[C@H](N)C(=O)O)C(=O)O [Cilastatin Sodium] . Value?
Marked response: 97.6%

Exam item: Endpoint output: cell viability of Cc1nccn1CC1CCc2c(c3ccccc3n2C)C1=O (stereo not given) . Value?
Marked response: 102%

Exam item: Endpoint output: cell viability of `CS(=O)(=O)c1ccc(-c2cc(Br)sc2-c2ccc(F)cc2)cc1` . Value?
Marked response: 104%

Exam item: Endpoint output: cell viability of NC(CO)C(=O)NNCc1ccc(O)c(O)c1O (stereo not given) [benserazide] . Value?
Marked response: 94%

Exam item: Endpoint output: cell viability of `NCCCC[C@H](N)C(=O)O` . Value?
Marked response: 99.5%

Exam item: Endpoint output: cell viability of C#CCC(Cc1cnc2nc(N)nc(N)c2n1)c1ccc(C(=O)N[C@@H](CCC(=O)O)C(=O)O)cc1 (stereo not given in full) [pralatrexate] . Value?
Marked response: 98.6%

Exam item: Endpoint output: cell viability of Cc1sc2c(c1C)C(c1ccc(Cl)cc1)=N[C@@H](CC(=O)Nc1ccc(OCCOCCOCCOCCNc3cccc4c3C(=O)N(C3CCC(=O)NC3=O)C4=O)cc1)c1nnc(C)n1-2 (stereo not given in full) . Value?
Marked response: 31.7%

Exam item: Endpoint output: cell viability of `NC1=N[C@@](c2cccc(-c3cncnc3)c2)(c2ccnc(C(F)F)c2)c2cccc(F)c21` . Value?
Marked response: 94.5%

Exam item: Endpoint output: cell viability of `CC(C)(C)NC[C@H](O)COc1nsnc1N1CCOCC1` . Value?
Marked response: 96.9%

Exam item: Endpoint output: cell viability of Cc1c(C)c2c(c(C)c1O)CCC(C)(COc1ccc(CC3SC(=O)NC3=O)cc1)O2 (stereo not given) . Value?
Marked response: 101%

Exam item: Endpoint output: cell viability of `CN(Cc1ccc(C(C)(C)C)cc1)Cc1cccc2ccccc12` . Value?
Marked response: 96.1%

Exam item: Endpoint output: cell viability of `CC(=O)N(O)C/C=C/c1cccc(Oc2ccccc2)c1` . Value?
Marked response: 81.8%

Exam item: Endpoint output: cell viability of `C[C@@H](c1nc(-c2ccc(C#N)cc2)cs1)[C@](O)(Cn1cncn1)c1ccc(F)cc1F` . Value?
Marked response: 85.9%

Exam item: Endpoint output: cell viability of `CCOC(=O)c1ccc(N)cc1` . Value?
Marked response: 95.5%

Exam item: Endpoint output: cell viability of `C[C@H](NC[C@H](O)CP(=O)(O)Cc1ccccc1)c1ccc(Cl)c(Cl)c1` . Value?
Marked response: 94.3%
